Experiment: MTT cell viability assay in HepG2 cell cultures
Assay type: cell-based, human
Settings: human, HepG2 cells, printed in Figures 5 and 8; MTT, HepG2, 24 h; read-out: CC50
Each entry below carries its recorded CC50 at 24 h.
Value expressed in µM; do not type the unit.

Cc1cc(NCc2ccc(C(F)(F)F)cc2)cc(=O)n1Cc1ccc(C(F)(F)F)cc1 [Compound 5c]: 32.4

# input for lookup
Recorded CC50 at 24 h (compound CO/C(=N\c1cc(C)n(Cc2ccc(C(F)(F)F)cc2)c(=O)c1)c1ccc(C(F)(F)F)cc1 [Compound 8] ): 43.1

====

Assay: MTT cell viability assay in HepG2 cell cultures
Format: cell-based, human
Conditions: human, HepG2 cells, printed in Figures 5 and 8; MTT, HepG2, 24 h; read-out: CC50
ASSAY_METRIC: CC50 at 24 h

Below: 2 molecules and their reported CC50 at 24 h.
Cc1cc(OCc2cccc(F)c2)c(Cc2cccc(F)c2)c(=O)n1Cc1ccc(Cl)cc1 [Compound 18b]: > 50 µM
Cc1cc(N(Cc2ccc(C(F)(F)F)cc2)C(=O)c2ccccc2)cc(=O)n1Cc1ccc(C(F)(F)F)cc1 [Compound 13]: > 50 µM

Given item CC(=O)N(Cc1ccc(C(F)(F)F)cc1)c1cc(C)n(Cc2ccc(C(F)(F)F)cc2)c(=O)c1Br [Compound 15] , the value recorded as its CC50 at 24 h is > 50 µM

Measured CC50 at 24 h, COc1ccc2cc3[n+](cc2c1OC)CCc1cc2c(cc1-3)OCO2 [BBR, berberine, reference compound] : 25 µM
